Exercise: for every item that follows, state its recorded IC50.
target.or.test.system: Induced myeloid leukemia cell differentiation protein Mcl-1 (Homo sapiens)
method: Mcl-1/Noxa binding inhibitor potency, dose response, biochemical, TR-FRET (AID 1417)
condition.info: Mcl-1/Noxa peptide interaction, cell-free TR-FRET (terbium/rhodamine), 2 h; measured here: absolute IC50

Observe how each entry below is paired with its result.
CCN(c1ccc(NC(=O)c2ccc(Cl)nc2)cc1)C(C)C: > 54000 nM
CN(C)c1ccc(NC(=O)c2cn(-c3ccccc3)nc2-c2cccs2)cc1: > 54000 nM
Cc1ccc(/C=C/C(=O)Nc2ccc(N(C)C)cc2)o1: < 400 nM
CC(C)C(C(=O)O)N1C(=O)/C(=C/C=C/c2ccco2)SC1=S (stereo unspecified): < 400 nM
O=C(/C=C/c1ccc(O)c(O)c1)O[C@H](Cc1ccc(O)c(O)c1)C(=O)O: < 400 nM

Lab note: each compound below needs its IC50 filled in.
1. CN(C)S(=O)(=O)c1cccc(-c2nn(-c3ccccc3)cc2/C=C2\SC(=S)N(CC(=O)O)C2=O)c1
2. CCN(c1ccc(NC(=O)COC(=O)c2cccs2)cc1)C(C)C
3. C/C(=N\Nc1ccc(C(=O)O)cc1)c1ccc2c(c1)Nc1ccccc1S2
4. C=CCc1c(C)nc(SCCC)[nH]c1=O
5. COc1ccc2nc(S(=O)Cc3ncc(C)c(OC)c3C)[nH]c2c1 (stereo unspecified)
6. O=C(O)CSc1cc(C(=O)c2cc(F)ccc2O)cn2c(=O)c3c(-c4ccccc4)csc3nc12

["4280 nM", "> 54000 nM", "< 400 nM", "> 54000 nM", "< 400 nM", "2120 nM"]
